Ref: ChEMBL document CHEMBL1149678

assay: Cmax in rat at 3 mg/kg, po; format: ADME, organism-based; set-up: dose 3 mg/kg, route oral; conditions: in vivo
// reported Cmax per item

[[record]]
compound_structure_string = "CCCN1c2ccc(NS(=O)(=O)c3cccc(C(F)(F)F)c3)cc2N=C(c2ccc(C(=O)O)cc2)c2cc3c(cc21)C(C)(C)CCC3(C)C"
value_observed = "519 nM"


Please examine the following record next.
Quick one: give measured Cmax for "CCN1c2ccc(NS(=O)(=O)c3cccc(C(F)(F)F)c3)cc2N=C(c2ccc(C(=O)O)cc2)c2cc3c(cc21)C(C)(C)CCC3(C)C"
468 nM

====

test: Tmax in rat at 3 mg/kg, po; type: ADME, organism-based; parameters: dose 3 mg/kg, route oral; details: in vivo
OBSERVATION_TYPE: Tmax (h)
Report the figure in h without appending any unit label.

[[record]]
compound_structure_string = "CCCN1c2ccc(NS(=O)(=O)c3cccc(C(F)(F)F)c3)cc2N=C(c2ccc(C(=O)O)cc2)c2cc3c(cc21)C(C)(C)CCC3(C)C"
value_observed = 4


Please examine the following record next.
Quick one: give measured Tmax for "CCN1c2ccc(NS(=O)(=O)c3cccc(C(F)(F)F)c3)cc2N=C(c2ccc(C(=O)O)cc2)c2cc3c(cc21)C(C)(C)CCC3(C)C"
4.7
